# System: galium
# Measurement protocol: Test A postemergence
# Assay type: in vivo, Galium aparine
# Particulars: Galium, post-emergence, 240 h, 500 g ai/ha, postemergence, 10 days, visual injury, 0 to 100 scale (0 no effect, 100 complete control); read-out: Plant response rating, Galium
Reported metric: pest or weed control at 500 g/ha

Consider the worked cases shown below.
INSERT INTO results (molecule, result) VALUES
  ('Cc1ncn(-c2ccc(C)c(C(=O)N3C[C@H](C)Oc4c(Cl)cccc43)c2)n1 (single isomer, unassigned) [Compound 74]', '100%'),
  ('CC(C)c1ncn(-c2cc(C(=O)N3C[C@H](C)Oc4c(Cl)cccc43)c3ccccc3c2)n1 [Compound 145]', '70%'),
  ('C[C@H]1CN(C(=S)c2cccc(-n3cncn3)c2)c2cccc(Cl)c2O1 [Compound 139]', '90%');

Now turn to the next molecule.
Quick one: pest or weed control at 500 g/ha of Cc1ccc(-n2cnc(C3CCC3)n2)cc1C(=O)N1C[C@H](C)Oc2c(Cl)cccc21 [Compound 96] ?
100%

====

# Test system: blackgrass
# Measurement protocol: Test A postemergence
# Format: in vivo, Alopecurus myosuroides
# Particulars: 1000 g ai/ha, Postemergence; 0 to 100 scale
# Description: […]
Reported metric: Plant response rating, Blackgrass
// return a plain number; no unit text

Consider the worked cases shown below.
INSERT INTO measurements (compound, reported_metric, numeric_readout) VALUES
  ('O=C(c1ccnc(-n2cncn2)c1)N1CC(C(F)(F)F)Oc2c(Cl)cccc21 (stereo not shown) [Compound 34]', 'Plant response rating, Blackgrass', 70),
  ('Cc1noc(-c2cccc(C(=O)N3C[C@H](C)Oc4c(Cl)cccc43)c2)n1 [Compound 121]', 'Plant response rating, Blackgrass', 0),
  ('CC1CN(C(=O)c2cccc(-n3cncn3)c2)c2cc(F)ccc2O1 (stereo not shown) [Compound 24]', 'Plant response rating, Blackgrass', 60),
  ('Cc1cccc2c1OC(C)CN2C(=O)c1ccc(C#N)c(-n2cncn2)c1 (stereo not shown) [Compound 29]', 'Plant response rating, Blackgrass', 70),
  ('C#Cc1cccc2c1OC(C)CN2C(=O)c1cccc(-n2cncn2)c1 (stereo not shown) [Compound 30]', 'Plant response rating, Blackgrass', 70);

Now turn to the next compound.
Give recorded Plant response rating, Blackgrass with blackgrass for the following compound: O=C(c1ccnc(-n2cncn2)c1)N1CC(CF)Oc2c(Cl)cccc21 (stereo not shown) [Compound 36]
60

====

# Test system: barnyardgrass
# Measurement protocol: Test C postemergence
# Format: in vivo, Echinochloa crusgalli
# Particulars: Postemergence, 500 g ai/ha, 10 days, visual 0 to 100 scale (0 no effect, 100 complete control)
// Plant response rating, Barnyardgrass lookup, one value per entry

INSERT INTO measurements (compound, assayed_system, reported_metric, result) VALUES
  ('CCc1ncn(-c2ccc(OC)c(C(=O)N3C[C@H](C)Oc4c(C)cccc43)c2)n1', 'barnyardgrass', 'Plant response rating, Barnyardgrass', 100);

Quick one: Plant response rating, Barnyardgrass of `COC[C@H]1CN(C(=O)c2cc(-n3cnc(C4CC4)n3)ccc2OC)c2cccc(Cl)c2O1` ?
90

Quick one: Plant response rating, Barnyardgrass of `COC[C@H]1CN(C(=O)c2cc(-n3cncn3)ccc2C)c2cccc(Cl)c2O1` ?
90

Quick one: Plant response rating, Barnyardgrass of `CCc1c(C)cc(-n2cnc(C(C)C)n2)cc1C(=O)N1C[C@H](C)Oc2c(Cl)cccc21` ?
10

Quick one: Plant response rating, Barnyardgrass of `COc1c(F)cc(-n2cnc(C(C)C)n2)cc1C(=O)N1C[C@H](C)Oc2c(Cl)cccc21` ?
70

Quick one: Plant response rating, Barnyardgrass of `CCc1ncn(-c2ccc(OC)c(C(=S)N3C[C@H](C)Oc4c(C)cccc43)c2)n1` ?
90

Quick one: Plant response rating, Barnyardgrass of `Cc1ccc(-n2cnc(C3(C(F)(F)F)CC3)n2)cc1C(=O)N1C[C@H](C)Oc2c(Cl)cccc21` ?
50

Quick one: Plant response rating, Barnyardgrass of `CCc1ncn(-c2ccc(C)c(C(=O)N3C[C@H](COC)Oc4c(Cl)cccc43)c2)n1` ?
100
